# Target: T1, recombinant soluble human TREM2 protein (human TREM2 ECD-FlagHis) (human, UniProt Q9NZC2 19-174)
# T1 sequence: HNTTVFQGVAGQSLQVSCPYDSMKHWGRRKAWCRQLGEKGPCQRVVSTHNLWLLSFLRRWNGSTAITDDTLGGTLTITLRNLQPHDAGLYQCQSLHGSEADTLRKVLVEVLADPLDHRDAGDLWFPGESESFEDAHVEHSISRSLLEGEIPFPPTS
# Method: Octet BLI binning; competitor: load Ab 5E3

| Binder | sandwich binding signal |
| --- | --- |
| 13E7 (antibody, human IgG2, V domains shown, human IgG2 from hybridoma) VH: EVQLVQSGAEVKKPGESLMISCKGSGYSFTSYWIGWVRQMPGKGLEWMGIIYPGDSDTRYSPSFQGQVTISADKSISTAYLQWSSLKASDTAMYFCARRRQGIWGDALDFWGQGTLVTVSS VL: EIVMTQSPATLSVSPGERATLSCRASQSVSSNLAWFQQKPGQAPRLLIYGASTRATGIPARFSVSGSGTEFTLTISSLQSEDFAVYYCLQDNNWPPTFGPGTKVDIK | 0.428 |
| 24F4 (antibody, human IgG2, V domains shown, human IgG2 from hybridoma) VH: EVQLVQSGAEVKKPGESLKISCKGSGYTFTSYWIGWVRQMPGKGLEWMGIIYPGDSDTRYSPSFQGQVTISVDKSSSTAYLQWSSLKASDTAIYYCTRQAIAVTGLGGFDPWGQGTLVTVSS VL: EIVLTQSPGTLSLSPGERATLSCRASQSVSSSYLAWYQQKPGQAPRLLIYGASSRATGIPDRFSGSGSGTDFTLTISRLEPEDFALYYCQQYDTSPFTFGPGTKVDIK | 0.311 |
| 32E3 (antibody, human IgG2, V domains shown, human IgG2 from hybridoma) VH: EVQLVQSGAEVKKPGESLKISCKGSGYSFTSYWIGWVRQMPGKGLEWMGIIYPGDSDTRYSPSFQGQVTISADKSISTAYLQWSTLKASDTAIYYCARHDIIPAAPGAFDIWGQGTMVTVSS VL: EFVLTQSPGTLSLSPGERATLSCRASQIISSNYLAWYQQKPGQAPRLLIYSASSRATGIPDRFSGSGSGTDFTLTISRLEPEDFAVYYCQQFDSSPITFGRGTRLDIK | 0.176 |
